These measurements were taken from PubChem BioAssay.

# target or test system: Follistatin-related protein 3 (Homo sapiens)
# protocol description: FSTL3 binders on small-molecule microarrays, primary screen, biochemical, small-molecule microarray, 635 nm fluorescence (AID 1105);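 also: score merges emission near 667 nm and signal to noise per printed spot across three slides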
# assay conditions: FSTL3 binding, higher = more signal
Attribute: composite z-score

{"columns": ["compound", "composite z-score"],
 "data": [
  ["CCc1cccc(NC(=O)O[C@H]2[C@H](OC(=O)Nc3ccccc3)[C@@H](OC(=O)Nc3ccccc3)[C@@H](OC)O[C@@H]2CO)c1", 1.41],
  ["C#C[C@H](O[Si](C#Cc1ccccc1)(C(C)C)C(C)C)c1ccccc1", -0.643],
  ["CO[C@H]1COC(=O)[C@H](C)NC(=O)CC=C[C@@H](C)[C@H](NS(=O)(=O)c2ccc(C)cc2)COC(=O)CC=C[C@@H]1C", 0.956]
]}
